Some compounds, each annotated with its measured EC50.
molecular target: BCRP (Homo sapiens, UniProt Q9UNQ0); test: cell-based
Sequence (Q9UNQ0 whole entry): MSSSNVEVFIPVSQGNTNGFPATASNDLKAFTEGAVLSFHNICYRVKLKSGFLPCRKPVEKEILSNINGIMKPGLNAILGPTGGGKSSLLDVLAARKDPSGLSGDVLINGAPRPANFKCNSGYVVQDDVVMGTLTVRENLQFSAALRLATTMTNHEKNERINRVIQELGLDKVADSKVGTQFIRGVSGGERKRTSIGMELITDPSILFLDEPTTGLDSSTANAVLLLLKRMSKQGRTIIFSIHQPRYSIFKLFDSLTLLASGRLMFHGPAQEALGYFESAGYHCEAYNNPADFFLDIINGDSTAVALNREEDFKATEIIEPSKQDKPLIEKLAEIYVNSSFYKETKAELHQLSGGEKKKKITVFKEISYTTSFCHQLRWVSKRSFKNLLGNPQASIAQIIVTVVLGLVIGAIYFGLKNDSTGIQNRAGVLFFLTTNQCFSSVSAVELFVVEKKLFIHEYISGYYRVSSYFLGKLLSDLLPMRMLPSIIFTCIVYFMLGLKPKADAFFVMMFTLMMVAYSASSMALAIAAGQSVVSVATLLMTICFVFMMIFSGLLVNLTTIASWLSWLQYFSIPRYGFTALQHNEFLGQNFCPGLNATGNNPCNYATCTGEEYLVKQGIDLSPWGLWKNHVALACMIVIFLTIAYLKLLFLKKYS

Below are worked cases with known answers.
{"compound": "Cc1ccc2oc(-c3ccc(OCCCCc4cn(CCOCCOCCOc5ccc(-c6cc(=O)c7cc(F)ccc7o6)cc5)nn4)cc3)cc(=O)c2c1 [Ac5Az4]", "EC50": "18 nM"}
{"compound": "COC(=O)c1cccc(COc2c(-c3ccc(OCCOCCn4cc(CN(Cc5ccccc5)Cc5cn(CCOCCOc6ccc(-c7oc8ccccc8c(=O)c7OCc7cccc(C(=O)OC)c7)cc6)nn5)nn4)cc3)oc3ccccc3c2=O)c1 [Ac15Az8]", "EC50": "≤ 10 nM"}
{"compound": "COC(=O)c1cccc(COc2c(-c3ccc(OCCOCCOCCN=[N+]=[N-])cc3)oc3ccccc3c2=O)c1 [Az9]", "EC50": "≤ 10 nM"}
{"compound": "COC(=O)c1cccc(COc2c(-c3ccc(OCCOCCOCCn4cc(CCCCOc5ccc(-c6cc(=O)c7cc(C)ccc7o6)cc5)nn4)cc3)oc3ccccc3c2=O)c1 [Ac5Az9]", "EC50": "≤ 10 nM"}
{"compound": "Cc1ccc2oc(-c3ccc(OCCCCc4cn(CCOCCOCCOc5ccc(-c6oc7ccccc7c(=O)c6OCc6ccccc6)cc5)nn4)cc3)cc(=O)c2c1 [Ac5Az5]", "EC50": "33 nM"}

Please turn your attention to the following entry.
If you can, please state the reported EC50 value of O=c1cc(-c2ccccc2)oc2cc(OCCCCc3cn(CCOCCOCCOc4ccc5c(=O)cc(-c6ccccc6)oc5c4)nn3)ccc12 [Ac12Az12] .
34 nM

----------
molecular target: MRP1 (Homo sapiens, UniProt P33527); assay: Reversal of MRP1-mediated vincristine resistance in 2008/MRP1 cells (cell proliferation assay); conditions: (IC50 towards L929 or Raw264.7)/(EC50 for reversing drug resistance)
Sequence (P33527 whole entry): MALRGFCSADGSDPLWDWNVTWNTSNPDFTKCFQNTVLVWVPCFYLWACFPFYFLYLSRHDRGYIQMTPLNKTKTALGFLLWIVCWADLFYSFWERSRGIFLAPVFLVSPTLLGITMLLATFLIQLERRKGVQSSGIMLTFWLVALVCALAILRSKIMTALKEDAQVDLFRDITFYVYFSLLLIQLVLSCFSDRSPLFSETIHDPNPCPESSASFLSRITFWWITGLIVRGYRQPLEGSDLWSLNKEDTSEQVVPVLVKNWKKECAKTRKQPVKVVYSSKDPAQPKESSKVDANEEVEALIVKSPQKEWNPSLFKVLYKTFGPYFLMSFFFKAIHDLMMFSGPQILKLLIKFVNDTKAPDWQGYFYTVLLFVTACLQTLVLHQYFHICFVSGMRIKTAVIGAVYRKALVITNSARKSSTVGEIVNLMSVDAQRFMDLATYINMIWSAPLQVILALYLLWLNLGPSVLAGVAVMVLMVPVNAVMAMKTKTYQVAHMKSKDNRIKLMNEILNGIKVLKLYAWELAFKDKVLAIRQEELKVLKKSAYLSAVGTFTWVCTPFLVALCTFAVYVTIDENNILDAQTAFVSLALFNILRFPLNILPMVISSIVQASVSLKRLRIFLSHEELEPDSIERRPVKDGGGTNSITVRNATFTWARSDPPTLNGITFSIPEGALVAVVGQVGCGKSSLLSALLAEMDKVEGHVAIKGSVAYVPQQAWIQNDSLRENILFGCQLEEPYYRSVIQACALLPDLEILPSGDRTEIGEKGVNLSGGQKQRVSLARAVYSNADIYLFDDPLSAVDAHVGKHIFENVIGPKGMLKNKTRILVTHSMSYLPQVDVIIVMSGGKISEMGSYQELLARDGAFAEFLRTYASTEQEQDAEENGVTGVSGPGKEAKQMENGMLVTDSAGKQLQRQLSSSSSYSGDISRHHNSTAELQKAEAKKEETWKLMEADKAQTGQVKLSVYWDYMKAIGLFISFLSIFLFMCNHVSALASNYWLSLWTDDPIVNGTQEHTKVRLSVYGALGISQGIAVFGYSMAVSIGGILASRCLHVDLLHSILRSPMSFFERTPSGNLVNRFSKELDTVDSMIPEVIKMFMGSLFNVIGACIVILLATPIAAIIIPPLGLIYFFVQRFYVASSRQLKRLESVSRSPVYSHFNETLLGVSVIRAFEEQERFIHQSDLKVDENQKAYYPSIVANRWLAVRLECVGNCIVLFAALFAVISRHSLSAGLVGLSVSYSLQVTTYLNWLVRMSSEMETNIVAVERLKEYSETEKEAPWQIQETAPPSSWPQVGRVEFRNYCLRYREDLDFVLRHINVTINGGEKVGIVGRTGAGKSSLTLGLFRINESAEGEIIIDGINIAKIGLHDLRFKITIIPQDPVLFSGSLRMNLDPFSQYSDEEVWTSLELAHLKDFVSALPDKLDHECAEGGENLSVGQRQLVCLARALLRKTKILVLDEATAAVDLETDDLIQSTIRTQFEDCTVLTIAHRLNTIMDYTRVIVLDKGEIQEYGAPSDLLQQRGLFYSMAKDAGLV
recorded.metric: Vincristine resistance of 2008/MRP1 Therapeutic index

{"molecule": "O=c1cc(-c2ccccc2)oc2cc(OCCCCc3cn(CCOCCOCCOc4ccc5c(=O)cc(-c6ccccc6)oc5c4)nn3)ccc12 [Ac12Az12]", "result": ">595.2"}
{"molecule": "O=c1cc(-c2ccc(OCCOCCn3cc(CCCCOc4ccc5c(=O)cc(-c6ccccc6)oc5c4)nn3)cc2)oc2ccccc12 [Ac12Az1]", "result": ">1190.5"}

Consider the additional molecule presented here.
Suppose we examine the molecule Cc1ccc2oc(-c3ccc(OCCOCCOCCn4cc(CN(Cc5ccccc5)Cc5cn(CCOCCOCCOc6ccc(-c7cc(=O)c8cc(C)ccc8o7)cc6)nn5)nn4)cc3)cc(=O)c2c1 [Ac15Az3] ; what Vincristine resistance of 2008/MRP1 Therapeutic index value has been reported?
>186.9

----------
system: P-gp, MRP1 and BCRP transporters; assay: Selectivity for ABC transporters, determined from % of reversion (Tables 1 and 2); format: cell-based, human; details: determined from % of reversion in Table 1 (>80% strongly, 79-50% moderately selective)
recorded.metric: Selectivity for ABC transporters (P-gp, MRP1, BCRP)

Look over these answered cases.
{"given.smiles": "COC(=O)c1cccc(COc2c(-c3ccc(OCCOCCOCCn4cc(CN(Cc5ccccc5)Cc5cn(CCOCCOCCOc6ccc(-c7oc8ccccc8c(=O)c7OCc7cccc(C(=O)OC)c7)cc6)nn5)nn4)cc3)oc3ccccc3c2=O)c1", "result": "mono-BCRP selectivity"}
{"given.smiles": "COC(=O)c1cccc(COc2c(-c3ccc(OCCOCCN=[N+]=[N-])cc3)oc3ccccc3c2=O)c1", "result": "mono-BCRP selectivity"}
{"given.smiles": "O=c1cc(-c2ccccc2)oc2cc(OCCOCCOCCn3cc(CN(CCOc4ccc5c(=O)cc(-c6ccccc6)oc5c4)Cc4ccccc4)nn3)ccc12", "result": "mono-MRP1 selectivity"}
{"given.smiles": "O=c1cc(-c2ccccc2)oc2cc(OCCOCCn3cc(COCCOc4ccc5c(=O)cc(-c6ccccc6)oc5c4)nn3)ccc12", "result": "mono-BCRP selectivity"}
{"given.smiles": "COC(=O)c1cccc(COc2c(-c3ccc(OCCOCCOCCN=[N+]=[N-])cc3)oc3ccccc3c2=O)c1", "result": "mono-BCRP selectivity"}
{"given.smiles": "O=c1cc(-c2ccccc2)oc2cc(OCCOCCOCCn3cc(COCCOc4ccc5c(=O)cc(-c6ccccc6)oc5c4)nn3)ccc12", "result": "mono-BCRP selectivity"}
{"given.smiles": "O=c1cc(-c2ccc(OCCOCCOCCn3cc(CN(Cc4ccccc4)Cc4cn(CCOCCOCCOc5ccc(-c6cc(=O)c7ccccc7o6)cc5)nn4)nn3)cc2)oc2ccccc12", "result": "mono-MRP1 selectivity"}
{"given.smiles": "Cc1ccc2oc(-c3ccc(OCCCCc4cn(CCOCCOc5ccc(-c6oc7ccccc7c(=O)c6OCc6ccccc6)cc5)nn4)cc3)cc(=O)c2c1", "result": "mono-BCRP selectivity"}

Alright, here's another molecule for you.
Recorded Selectivity for ABC transporters (P-gp, MRP1, BCRP) of O=c1[nH]c(-c2ccc(OCCCc3cn(CCOCCOc4ccc(-c5cc(=O)c6ccccc6o5)cc4)nn3)cc2)nc2ccccc12 , please.
mono-BCRP selectivity

----------
system: P-gp, MRP1 and BCRP transporters; experiment: Selectivity for ABC transporters, determined from % of reversion (Tables 1 and 2); assay type: cell-based, human; details: determined from % of reversion in Table 1 (>80% strongly, 79-50% moderately selective)
recorded.metric: Selectivity for ABC transporters (P-gp, MRP1, BCRP)

{"given.smiles": "[N-]=[N+]=NCCOCCOCCOc1ccc(-c2oc3ccccc3c(=O)c2OCc2ccccc2)cc1", "tested.system": "P-gp, MRP1 and BCRP transporters", "result": "mono-BCRP selectivity"}
{"given.smiles": "COC(=O)c1cccc(COc2c(-c3ccc(OCCOCCn4cc(CN(Cc5ccccc5)Cc5cn(CCOCCOc6ccc(-c7oc8ccccc8c(=O)c7OCc7cccc(C(=O)OC)c7)cc6)nn5)nn4)cc3)oc3ccccc3c2=O)c1", "tested.system": "P-gp, MRP1 and BCRP transporters", "result": "mono-BCRP selectivity"}
{"given.smiles": "O=c1c(OCc2ccccc2)c(-c2ccc(OCCOCCOCCn3cc(CN(Cc4ccccc4)Cc4cn(CCOCCOCCOc5ccc(-c6oc7ccccc7c(=O)c6OCc6ccccc6)cc5)nn4)nn3)cc2)oc2ccccc12", "tested.system": "P-gp, MRP1 and BCRP transporters", "result": "mono-BCRP selectivity"}

----------
Vincristine resistance of 2008/MRP1 Therapeutic index reference
molecular target: MRP1 (Homo sapiens); test: Reversal of MRP1-mediated vincristine resistance in 2008/MRP1 cells (cell proliferation assay); conditions: (IC50 towards L929 or Raw264.7)/(EC50 for reversing drug resistance)

{"compound": "O=c1cc(-c2ccccc2)oc2cc(OCCCCc3cn(CCOCCOCCOc4ccc(-c5cc(=O)c6cc(F)ccc6o5)cc4)nn3)ccc12 [Ac12Az4]", "result": ">736.9"}
{"compound": "Cc1ccc2oc(-c3ccc(OCCCCc4cn(CCOCCOCCOc5ccc6c(=O)cc(-c7ccccc7)oc6c5)nn4)cc3)cc(=O)c2c1 [Ac5Az12]", "result": ">1081.1"}
{"compound": "O=c1cc(-c2ccccc2)oc2cc(OCCCCc3cn(CCOCCOc4ccc(-c5cc(=O)c6cc(F)ccc6o5)cc4)nn3)ccc12 [Ac12Az7]", "result": ">1071.8"}
{"compound": "O=c1cc(-c2ccc(OCCOCCOCCn3cc(CN(Cc4ccccc4)Cc4cn(CCOCCOCCOc5ccc(-c6cc(=O)c7ccccc7o6)cc5)nn4)nn3)cc2)oc2ccccc12 [Ac15Az2]", "result": ">181.8"}
{"compound": "Cc1ccc2oc(-c3ccc(OCCOCCOCCn4cc(CCCCOc5ccc6c(=O)cc(-c7ccccc7)oc6c5)nn4)cc3)cc(=O)c2c1 [Ac12Az3]", "result": ">613.5"}
{"compound": "O=c1cc(-c2ccc(OCCOCCOCCn3cc(CCCCOc4ccc5c(=O)cc(-c6ccccc6)oc5c4)nn3)cc2)oc2ccccc12 [Ac12Az2]", "result": ">377.9"}

Any idea what its Vincristine resistance of 2008/MRP1 Therapeutic index is? The compound is O=c1cc(-c2ccccc2)oc2cc(OCCCCc3cn(CCOCCOc4ccc5c(=O)cc(-c6ccccc6)oc5c4)nn3)ccc12 [Ac12Az11]
>591.7

----------
test system: 2008/MRP1; assay: Cell proliferation assay, 2008/MRP1; conditions: read-out: IC50 of anticancer drug, 2008/MRP1; without modulator
recorded.metric: IC50 (nM)
Express it in nM; write the number only.

Form: Entry = COc1cccc2c1C(=O)c1c(O)c3c(c(O)c1C2=O)C[C@@](O)(C(=O)CO)C[C@@H]3O[C@H]1C[C@H](N)[C@H](O)[C@H](C)O1 | System = 2008/MRP1 | IC50 = ____
413

FYI, the data here is from patent US9611256B2.
